Provenance of the data: patent US20210292330A1

# key: entry, value: CAF (10 minutes/60 minutes) at 10 micromolar: 10 minutes
Biological target: KRAS 4B G12C protein (Homo sapiens, UniProt P01116, G12C)
Construct: This protein contained 188 amino acids in total, including an N-terminal 6-Histidine tag; made in house; host or cells: E. coli BL21
Assay: In vitro covalent adduct formation (CAF) assay by LC-MS
Type: binding
Details: 10 minutes; compound 10 μM, protein 5 μM, 22° C.; percentage of protein bound by the compound
metric_name: CAF (10 minutes/60 minutes) at 10 micromolar: 10 minutes (%)

INSERT INTO measurements (compound, experimental_value) VALUES
  ('C=CC(=O)N1CCN(c2nc(OC[C@@H]3CCCN3C)nc3c2CN(Cc2cc(OC)ccc2C)C3)[C@@H](C)C1', 0),
  ('C=CC(=O)N1CCN(c2nc(OC[C@@H]3CCCN3C)nc3c2CN(C2CCc4ccccc42)C3)C[C@H]1C#N (stereo partly drawn)', 60),
  ('C=CC(=O)N1CCN(c2nc(CC[C@@H]3CCCN3C)nc3c2CN(C2CCc4ccccc42)C3)C[C@@H]1CC#N (stereo partly drawn)', 7),
  ('C=CC(=O)N1CCN(c2nc(OC[C@@H]3CCCN3C)nc3c2CN(Cc2ccccc2Cl)C3)C[C@@H]1CC#N', 96),
  ('C=CC(=O)N1CCN(c2nc(OC[C@@H]3CCCN3C)nc3c2CN(Cc2c(F)cccc2OC)C3)C[C@@H]1CC#N', 91),
  ('C=CC(=O)N1CCN(c2nc(OC[C@@H]3CCCN3C)nc3c2CN(Cc2cc(O)ccc2Cl)C3)[C@@H](C)C1', 97),
  ('C=CC(=O)N1CCN(c2nc(OC[C@@H]3CCCN3C)nc3c2CN(C(C)c2ccccc2C(C)C)C3)C[C@@H]1CC#N (stereo partly drawn)', 57),
  ('C=CC(=O)N1CCN(c2nc(OC[C@@H]3CCCN3C)nc3c2CN(C(C)c2c(F)cccc2OC)C3)C[C@@H]1CC#N (stereo partly drawn)', 95),
  ('C=CC(=O)N1C2CC(=O)CC1CN(c1nc(OC[C@@H]3CCCN3C)nc3c1CN(C1CCc4ccccc41)C3)C2 (stereo partly drawn)', 0),
  ('C=CC(=O)N1CCN(c2nc(OC[C@@H]3CCCN3C)nc3c2CN(Cc2c(C)cccc2OC(F)F)C3)C[C@@H]1CC#N', 97),
  ('C=C(F)C(=O)N1CCN(c2nc(OC[C@@H]3CCCN3C)nc3c2CN(Cc2nc(N)ccc2Cl)C3)C[C@@H]1CC#N', 83),
  ('C=CC(=O)N1CCN(c2nc(OC[C@@H]3CCCN3C)nc3c2CN(Cc2c(Cl)cccc2Cl)C3)C[C@@H]1CC#N', 98),
  ('C=CC(=O)N1CCN(c2nc(OC[C@@H]3CCCN3C)nc3c2CN(Cc2cccc4ncccc24)C3)C[C@@H]1CC#N', 1),
  ('C=CC(=O)N1CCN(c2nc(OC[C@@H]3CCCN3C)nc3c2CN(C2CCc4ccccc42)C3)C[C@@H]1CC#N (stereo partly drawn)', 84);
